# Tested on: EfPiwi piRISC loaded with L1MC piRNA (26 nt)
# experimental details: pre-steady-state target cleavage rate (min^-1); auxiliary factor: 500 nM Ephydatia muelleri Gtsf1; guide: L1MC piRNA 5'p-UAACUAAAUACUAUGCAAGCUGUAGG; higher = faster piRNA-guided slicing of the target
For each record, write down the corresponding pre-steady-state target cleavage rate.
Give bare numbers.

{"columns": ["sequence entry", "recorded metric", "reading"],
 "data": [
  ["UCCUCCUACAGCUUGCAUAGUCUUUAGUUA", "pre-steady-state target cleavage rate", 0.0068],
  ["UCCUCCAUACAGCUUGCAUAGUAUUUAGUUA", "pre-steady-state target cleavage rate", 0.00733],
  ["UCCUGGUAGUCCUUGCAUAGUAUUUAGUAA", "pre-steady-state target cleavage rate", 0.00627],
  ["UCCUGGAUGAAGCUUGCAUAGUAUUUAGUUA", "pre-steady-state target cleavage rate", 0.0366]
]}

Go through the list and state pre-steady-state target cleavage rate for each entry.
1. UCCUGCUACAGCUAGCAUAGUAUUUAGUAA
2. UCCUGCAACAGCUUGGAUAGUAUUUAGUUA
3. UCCUGGAUCAGGUUGCUUAGUAUUUAGUUA
4. UCCUCCUACAGCUUGCAUUGUAUUUAGAAA
5. UCCUCCUACAGCUUGCAUAGUAUUUAGUUG [g2:g26:cont:t1G]

0.00623
0.0256
0.00555
0.00363
0.00723

----------
# Tested on: MILI (PIWIL2) piRISC loaded with L1MC piRNA (26 nt);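 also: 1 nM active piRISC with 0.1 nM target library at 33 °C single turnover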
# experimental details: pre-steady-state target cleavage rate (min^-1); guide: L1MC piRNA 5'p-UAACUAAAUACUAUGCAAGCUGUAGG; higher = faster piRNA-guided slicing of the target
# measurement setup: auxiliary factor: 500 nM mouse GTSF1
We use 0.09 as the dividing line for pre-steady-state target cleavage rate: on or above the line is Condition met, below is Condition not met.

Worked examples follow.
{"columns": ["sequence entry", "class"],
 "data": [
  ["UCCUGGAUGAGCAUGCAUAGUAUUUACUUA", "Condition met"],
  ["UCCUGGAUGUCGAACCAUAGUAUUUAGUUU [g2:g15:cont:t1U]", "Condition not met"],
  ["UCCUGGAACAGCAAGCAUAGUAUUUAGUUA", "Condition met"],
  ["UCCUGGAUGUCGAAACAUAGUAUUUAGUUA", "Condition not met"]
]}

Please turn your attention to the following entry.
Would you say UCCUGGAACAGCAAGCAUAGUAUUUAGAAA shows pre-steady-state target cleavage rate at minimum 0.09?
Condition met

----------
# Test system: MILI (PIWIL2) piRISC loaded with L1MC piRNA (26 nt);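 also: 1 nM active piRISC with 0.1 nM target library at 33 °C single turnover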
# experimental details: pre-steady-state target cleavage rate (min^-1); guide: L1MC piRNA 5'p-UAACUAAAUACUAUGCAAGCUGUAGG; MIWI and MILI are mouse PIWI proteins and EfPiwi is from a freshwater sponge; tags in brackets are library labels; higher = faster piRNA-guided slicing of the target
# measurement setup: auxiliary factor: none (no GTSF1)
recorded metric: pre-steady-state target cleavage rate
One number for each entry.

Worked set:
{"columns": ["sequence entry", "recorded metric", "reading"],
 "data": [
  ["UCCUGGAUGAGCUUGCAUAGUAUUUAGUUU [g2:g21:cont:t1U]", "pre-steady-state target cleavage rate", 0.0146],
  ["UCCUGGUACAGCUUGCAUAGUAUUUAGGUUA", "pre-steady-state target cleavage rate", 0.00633]
]}

Go through the list and state pre-steady-state target cleavage rate for each entry.
1. UCCUCCUACAGCAUGCAAAGUAUUUAGUUA
2. UCCUCCUACAGCUUGCACAGUAUUUAGUUA
3. UCCUGGUAGAGCUAGCAUAGUAUUUAGUUA

1. 0.00732
2. 0.00767
3. 0.00986
